- System: Klebsiella pneumoniae (ATCC 43816)
- Format: cell-based
- Description: The antimicrobial assay was carried out to detect the minimum inhibitory concentration (MIC) and the minimum bactericidal concentration (MBC) of each peptide on the microbes as described previously. […]
Positions of bridges follow the written chain, without caps; N, C: chain ends. Residues, ends and D or L forms follow the SMILES beside them.
PROPERTY: MBC K. pneumoniae (µM)
Numbers only, in µM.

Some solved cases for reference:
Data request: In one line, give reported MBC K. pneumoniae of the entry CC[C@H](C)[C@@H]1NC(=O)[C@H](C)NC(=O)[C@@H](NC(=O)[C@H](Cc2ccccc2)NC(=O)[C@@H](NC(=O)[C@H](CCCCN)NC(=O)[C@H](Cc2c[nH]c3ccccc23)NC(=O)[C@@H]2CCCN2C(=O)[C@H](CC(C)C)NC(=O)[C@H](Cc2ccccc2)NC(=O)[C@@H](N)CCCCN)[C@@H](C)CC)CSSC[C@@H](C(=O)O)NC(=O)[C@H](CCCCN)NC(=O)[C@H](CCCCN)NC(=O)[C@H]([C@@H](C)O)NC1=O [KWB2] (H-KFLPWKIFCAITKKC-OH; disulfide 9-15) .
Data returned: 128

Data request: In one line, give reported MBC K. pneumoniae of the entry CC[C@H](C)[C@@H]1NC(=O)[C@H](C)NC(=O)[C@@H](NC(=O)[C@H](Cc2ccccc2)NC(=O)[C@H](Cc2c[nH]c3ccccc23)NC(=O)[C@H](CCCCN)NC(=O)[C@H](Cc2c[nH]c3ccccc23)NC(=O)[C@@H]2CCCN2C(=O)[C@H](CC(C)C)NC(=O)[C@H](Cc2ccccc2)NC(=O)[C@@H](N)CCCCN)CSSC[C@@H](C(=O)O)NC(=O)[C@H](CCCCN)NC(=O)[C@H](CCCCN)NC(=O)[C@H]([C@@H](C)O)NC1=O [KW^5,7B2] (H-KFLPWKWFCAITKKC-OH; disulfide 9-15) .
Data returned: 64

Data request: In one line, give reported MBC K. pneumoniae of the entry CC[C@H](C)[C@@H]1NC(=O)[C@H](C)NC(=O)[C@@H](NC(=O)[C@H](Cc2ccccc2)NC(=O)[C@@H](NC(=O)[C@H](CCCCN)NC(=O)[C@H](Cc2c[nH]c3ccccc23)NC(=O)[C@@H]2CCCN2C(=O)[C@H](Cc2c[nH]c3ccccc23)NC(=O)[C@H](Cc2ccccc2)NC(=O)[C@@H](N)CCCCN)[C@@H](C)CC)CSSC[C@@H](C(=O)O)NC(=O)[C@H](CCCCN)NC(=O)[C@H](CCCCN)NC(=O)[C@H]([C@@H](C)O)NC1=O [KW^3,5B2] (H-KFWPWKIFCAITKKC-OH; disulfide 9-15) .
Data returned: 64

Pending compound:
Data request: In one line, give reported MBC K. pneumoniae of the entry CC[C@H](C)[C@@H]1NC(=O)[C@H](C)NC(=O)[C@@H](NC(=O)[C@H](Cc2ccccc2)NC(=O)[C@@H](NC(=O)[C@H](CCCCN)NC(=O)[C@H](Cc2c[nH]c3ccccc23)NC(=O)[C@@H]2CCCN2C(=O)[C@H](CC(C)C)NC(=O)[C@H](Cc2ccccc2)NC(=O)[C@H](CCCCN)NC(=O)[C@@H](N)CCCCN)[C@@H](C)CC)CSSC[C@@H](C(=O)O)NC(=O)[C@H](CCCCN)NC(=O)[C@H](CCCCN)NC(=O)[C@H]([C@@H](C)O)NC1=O [KKWB2] (H-KKFLPWKIFCAITKKC-OH; disulfide 10-16) .
Data returned: 32

----------
- Tested on: Pseudomonas aeruginosa (ATCC27853)
- Assay type: cell-based
Positions of bridges follow the written chain, without caps; N, C: chain ends. Residues, ends and D or L forms follow the SMILES beside them.
Would you kindly list MBC P. aeruginosa for each of these molecules?
Numbers only, in µM.

Data request: In one line, give reported MBC P. aeruginosa of the entry CC[C@H](C)[C@@H]1NC(=O)[C@H](C)NC(=O)[C@@H](NC(=O)[C@H](Cc2ccccc2)NC(=O)[C@@H](NC(=O)[C@H](CCCCN)NC(=O)[C@H](Cc2c[nH]c3ccccc23)NC(=O)[C@@H]2CCCN2C(=O)[C@H](CC(C)C)NC(=O)[C@H](Cc2ccccc2)NC(=O)[C@H](CCCCN)NC(=O)[C@@H](N)CCCCN)[C@@H](C)CC)CSSC[C@@H](C(=O)O)NC(=O)[C@H](CCCCN)NC(=O)[C@H](CCCCN)NC(=O)[C@H]([C@@H](C)O)NC1=O [KKWB2] (H-KKFLPWKIFCAITKKC-OH; disulfide 10-16) .
Data returned: 64

Data request: In one line, give reported MBC P. aeruginosa of the entry CC[C@H](C)[C@@H]1NC(=O)[C@H](C)NC(=O)[C@@H](NC(=O)[C@H](Cc2ccccc2)NC(=O)[C@@H](NC(=O)[C@H](CCCCN)NC(=O)[C@H](Cc2c[nH]c3ccccc23)NC(=O)[C@@H]2CCCN2C(=O)[C@H](Cc2c[nH]c3ccccc23)NC(=O)[C@H](Cc2ccccc2)NC(=O)[C@@H](N)CCCCN)[C@@H](C)CC)CSSC[C@@H](C(=O)O)NC(=O)[C@H](CCCCN)NC(=O)[C@H](CCCCN)NC(=O)[C@H]([C@@H](C)O)NC1=O [KW^3,5B2] (H-KFWPWKIFCAITKKC-OH; disulfide 9-15) .
Data returned: 128

Data request: In one line, give reported MBC P. aeruginosa of the entry CC[C@H](C)[C@@H]1NC(=O)[C@H](C)NC(=O)[C@@H](NC(=O)[C@H](Cc2ccccc2)NC(=O)[C@@H](NC(=O)[C@H](CCCCN)NC(=O)[C@H](Cc2c[nH]c3ccccc23)NC(=O)[C@@H]2CCCN2C(=O)[C@H](CC(C)C)NC(=O)[C@H](Cc2ccccc2)NC(=O)[C@@H](N)CCCCN)[C@@H](C)CC)CSSC[C@@H](C(=O)O)NC(=O)[C@H](CCCCN)NC(=O)[C@H](CCCCN)NC(=O)[C@H]([C@@H](C)O)NC1=O [KWB2] (H-KFLPWKIFCAITKKC-OH; disulfide 9-15) .
Data returned: 256

Pending molecule:
Data request: In one line, give reported MBC P. aeruginosa of the entry CC[C@H](C)[C@@H]1NC(=O)[C@H](C)NC(=O)[C@@H](NC(=O)[C@H](Cc2ccccc2)NC(=O)[C@H](Cc2c[nH]c3ccccc23)NC(=O)[C@H](CCCCN)NC(=O)[C@H](Cc2c[nH]c3ccccc23)NC(=O)[C@@H]2CCCN2C(=O)[C@H](CC(C)C)NC(=O)[C@H](Cc2ccccc2)NC(=O)[C@@H](N)CCCCN)CSSC[C@@H](C(=O)O)NC(=O)[C@H](CCCCN)NC(=O)[C@H](CCCCN)NC(=O)[C@H]([C@@H](C)O)NC1=O [KW^5,7B2] (H-KFLPWKWFCAITKKC-OH; disulfide 9-15) .
Data returned: 128

----------
- System: Klebsiella pneumoniae (ATCC 43816)
- Assay type: cell-based
Positions of bridges follow the written chain, without caps; N, C: chain ends. Residues, ends and D or L forms follow the SMILES beside them.
PROPERTY: MBC K. pneumoniae (µM)
Give bare numbers, in µM.

Data request: Jot down MBC K. pneumoniae (Klebsiella pneumoniae (ATCC 43816)) of CC[C@H](C)[C@@H]1NC(=O)[C@H](C)NC(=O)[C@@H](NC(=O)[C@H](Cc2ccccc2)NC(=O)[C@@H](NC(=O)[C@H](CCCCN)NC(=O)[C@@H]2CCCN2C(=O)[C@H](CC(C)C)NC(=O)[C@H](Cc2ccccc2)NC(=O)[C@@H](N)CCCCN)[C@@H](C)CC)CSSC[C@@H](C(=O)O)NC(=O)[C@H](CCCCN)NC(=O)[C@H](CCCCN)NC(=O)[C@H]([C@@H](C)O)NC1=O [KB2] (H-KFLPKIFCAITKKC-OH; disulfide 8-14) .
Data returned: 256

Pending compound:
Data request: Jot down MBC K. pneumoniae (Klebsiella pneumoniae (ATCC 43816)) of CC[C@H](C)[C@@H]1NC(=O)[C@H](C)NC(=O)[C@@H](NC(=O)[C@H](Cc2ccccc2)NC(=O)[C@@H](NC(=O)[C@H](CCCCN)NC(=O)[C@@H]2CCCN2C(=O)[C@H](CC(C)C)NC(=O)[C@H](Cc2ccccc2)NC(=O)[C@H](CCCCN)NC(=O)[C@@H](N)CCCCN)[C@@H](C)CC)CSSC[C@@H](C(=O)O)NC(=O)[C@H](CCCCN)NC(=O)[C@H](CCCCN)NC(=O)[C@H]([C@@H](C)O)NC1=O [KKB2] (H-KKFLPKIFCAITKKC-OH; disulfide 9-15) .
Data returned: 256

----------
- Test system: Escherichia coli (NCTC10418)
- Assay type: cell-based
Positions of bridges follow the written chain, without caps; N, C: chain ends. Residues, ends and D or L forms follow the SMILES beside them.
Would you kindly list MBC E. coli for each of these compounds?

Data request: Jot down MBC E. coli (Escherichia coli (NCTC10418)) of CC[C@H](C)[C@@H]1NC(=O)[C@H](C)NC(=O)[C@@H](NC(=O)[C@H](Cc2ccccc2)NC(=O)[C@H](Cc2c[nH]c3ccccc23)NC(=O)[C@H](CCCCN)NC(=O)[C@H](Cc2c[nH]c3ccccc23)NC(=O)[C@@H]2CCCN2C(=O)[C@H](CC(C)C)NC(=O)[C@H](Cc2ccccc2)NC(=O)[C@@H](N)CCCCN)CSSC[C@@H](C(=O)O)NC(=O)[C@H](CCCCN)NC(=O)[C@H](CCCCN)NC(=O)[C@H]([C@@H](C)O)NC1=O [KW^5,7B2] (H-KFLPWKWFCAITKKC-OH; disulfide 9-15) .
Data returned: 64 µM

Continuing:
Data request: Jot down MBC E. coli (Escherichia coli (NCTC10418)) of CC[C@H](C)[C@@H]1NC(=O)[C@H](C)NC(=O)[C@@H](NC(=O)[C@H](Cc2ccccc2)NC(=O)[C@@H](NC(=O)[C@H](CCCCN)NC(=O)[C@@H]2CCCN2C(=O)[C@H](CC(C)C)NC(=O)[C@H](Cc2ccccc2)NC(=O)[C@H](CCCCN)NC(=O)[C@@H](N)CCCCN)[C@@H](C)CC)CSSC[C@@H](C(=O)O)NC(=O)[C@H](CCCCN)NC(=O)[C@H](CCCCN)NC(=O)[C@H]([C@@H](C)O)NC1=O [KKB2] (H-KKFLPKIFCAITKKC-OH; disulfide 9-15) .
Data returned: 32 µM
